These data points were gathered from PubChem BioAssay AID652175.

# assay_protocol: qHTS Assay for Lipid Storage Modulators: S3 Assay against Probe and Analogs
# assay_conditions: Drosophila S3 cells, BODIPY lipid droplet fluorescence, 18-24 h, oleic acid added to induce droplets; series mostly up to 46.1 µM
Results filed as inconclusive are left out. Active and inactive are the calls of the source. The call rests on the fitted dose curve; in most records, active means well fitted inhibition curve with a large enough effect; inconclusive means small, poorly fitted or top-dose-only effect; inactive means no such curve, though single readings can be large or run the other way.
Outcomes: 1.0 for active, 0.0 for inactive

{"compound": "CCOC(=O)C1CCN(C(=O)C2(NC(=O)Nc3ccccc3Cl)CC2)CC1", "group": 0.0}
{"compound": "O=C(NC1CCCc2c1cnn2-c1cccc(O)c1)c1ccccn1 (configuration not stated)", "group": 1.0}
{"compound": "O=C(NC1CCCc2c1cnn2-c1ccc(F)cc1F)c1cccs1 (configuration not stated)", "group": 1.0}
{"compound": "O=C(NCCc1ccc2c(c1)OCO2)c1cc2sccc2n1Cc1ccccc1", "group": 0.0}
{"compound": "CCn1c(C(=O)NCc2ccc(OC)c(OC)c2)cc2sccc21", "group": 0.0}
{"compound": "O=C(N[C@H]1CCCc2c1cnn2-c1ccc(F)cc1F)c1ccccn1", "group": 0.0}
{"compound": "CCn1c(C(=O)NCCc2ccc(OC)cc2)cc2sccc21", "group": 0.0}
{"compound": "C[C@@H](NCCCc1cccc(C(F)(F)F)c1)c1cccc2ccccc12", "group": 0.0}
{"compound": "CCOC(=O)C1CCN(C(=O)C(C)(C)NC(=O)Nc2ccc(CN3CCOCC3)cc2)CC1", "group": 0.0}
{"compound": "CCOc1ccc(CCNC(=O)c2cc3sccc3n2Cc2ccccc2)cc1OCC", "group": 1.0}
{"compound": "O=C(O)CCc1ccc(NCc2cccc(Oc3ccccc3)c2)cc1", "group": 0.0}
{"compound": "COc1cc(Nc2ncc(F)c(Nc3ccc4c(n3)NC(=O)C(C)(C)O4)n2)cc(OC)c1OC", "group": 0.0}
{"compound": "CCOc1ccc(CCNC(=O)c2ccnn2Cc2cccc(C)c2)cc1OCC", "group": 0.0}
{"compound": "CCOc1cc2c(cc1OCC)CN(C(=O)c1cc3sccc3n1Cc1ccccc1)CC2", "group": 1.0}
{"compound": "CCOC(=O)C1CCN(C(=O)C2(NC(=O)Nc3ccccc3Cl)CCCCC2)CC1", "group": 1.0}
{"compound": "CCOC(=O)C1CCN(C(=O)C(C)(C)NC(=O)Nc2ccc(OC)c(Cl)c2)CC1", "group": 0.0}
{"compound": "CCOC(=O)C1CCN(C(=O)C(C)(C)NC(=O)Nc2cccc(C(=O)OC)c2)CC1", "group": 0.0}
{"compound": "CCOc1ccc(CCNC(=O)c2ccc(N3N=C(C)CC3=O)cc2)cc1OCC", "group": 0.0}
{"compound": "CCOc1ccc(CCNC(=O)c2ccccn2)cc1OCC", "group": 0.0}
{"compound": "CC(C)(C)OC(=O)NCCOCCOCCOc1cccc(-n2ncc3c2CCCC3NC(=O)c2ccccn2)c1 (configuration not stated)", "group": 1.0}
{"compound": "O=C(Nc1cccc2nn(-c3ccc(F)cc3)cc12)c1ccccn1", "group": 0.0}
{"compound": "CC1=C(C(=O)NC2CCCc3c2cnn3-c2ccc(F)cc2F)OCCO1 (configuration not stated)", "group": 1.0}
